Tested on: AGS
Assay: Cell proliferation experiment (CellTiter-Glo)
Format: cell-based
Conditions: Homo sapiens, AGS, 96 h, read-out: IC50(nM) AGS
readout_type: IC50 (nM)
Reply numerically in nM, unit not repeated.

Tell us which IC50 value is on record for CCc1c(F)ccc2cc(O)cc(-c3ncc4c(N5CCC[C@@](C)(O)C5)nc(OCC5(CN6CCC(Oc7ccc(-c8cn([C@H](C(=O)N9C[C@H](O)C[C@H]9C(=O)N[C@@H](C)c9ccc(-c%10scnc%10C)cc9)C(C)C)nn8)nc7)CC6)CC5)nc4c3F)c12 13

Tell me measured IC50 for CCc1c(F)ccc2cc(O)cc(-c3ncc4c(N5CCCC(C)(O)C5)nc(OC[C@]56CCCN5[C@@H](COC(=O)N5CCC7(CC5)CC(C(=O)N[C@H](C(=O)N5C[C@H](O)C[C@H]5C(=O)N[C@@H](C)c5ccc(-c8scnc8C)cc5)C(C)(C)C)C7)CC6)nc4c3F)c12 (stereo partly shown) please. 44

Output IC50 of CCc1c(F)ccc2cc(O)cc(-c3ncc4c(N5CCC[C@@](C)(O)C5)nc(OC[C@]56CCCN5[C@@H](COc5cnc(-c7cn([C@H](C(=O)N8C[C@H](O)C[C@H]8C(=O)N[C@@H](C)c8ccc(-c9scnc9C)cc8)C(C)C)nn7)cn5)CC6)nc4c3F)c12 6.2

Given the compound C=C1CN2[C@H](CN3CCC(c4cn([C@H](C(=O)N5C[C@H](O)C[C@H]5C(=O)N[C@@H](C)c5ccc(-c6scnc6C)cc5)C(C)C)nn4)CC3)CC[C@@]2(COc2nc(N3CCC[C@@](C)(O)C3)c3cnc(-c4cc(O)cc5ccc(F)c(CC)c45)c(F)c3n2)C1 , write its reported IC50. 82

###

Experiment: in vitro
Settings: rat, microsomes
readout_type: microsomal CLint (µL/min/mg)
Reply with just the number (in µL/min/mg).

CCc1c(F)ccc2cc(O)cc(-c3ncc4c(N5CCC[C@@](C)(O)C5)nc(OCC5(CN6CCC(c7ccc(-c8cn([C@H](C(=O)N9C[C@H](O)C[C@H]9C(=O)N[C@@H](C)c9ccc(-c%10scnc%10C)cc9)C(C)C)nn8)cc7)CC6)CC5)nc4c3F)c12; 7.2

Read off the recorded microsomal CLint for CCc1c(F)ccc2cc(O)cc(-c3ncc4c(N5CCC[C@@](C)(O)C5)nc(OCC5(CN6CCC7(CC6)CN(c6ccc(-c8cn([C@H](C(=O)N9C[C@H](O)C[C@H]9C(=O)N[C@@H](C)c9ccc(-c%10scnc%10C)cc9)C(C)C)nn8)cc6)C7)CC5)nc4c3F)c12 20.7

###

Assay: PK study in Balbc mice (whole blood)
Type: in vivo
Conditions: mouse, Female Balbc mice, IV 1 mg/kg
readout_type: AUC(0-t)
Answer with the value and then the unit.

Supply AUC(0-t) value. Item: CCc1c(F)ccc2cc(O)cc(-c3ncc4c(N5CCCC(C)(O)C5)nc(OC[C@]56CCCN5[C@@H](COC(=O)N5CCC7(CC5)CC(C(=O)N[C@H](C(=O)N5C[C@H](O)C[C@H]5C(=O)N[C@@H](C)c5ccc(-c8scnc8C)cc5)C(C)(C)C)C7)CC6)nc4c3F)c12 (stereo partly shown) [Compound 2] 4380 ng·h/mL

###

IC50 for assorted compounds
System: AGS
Assay: Cell proliferation experiment (CellTiter-Glo)
Type: cell-based
Conditions: Homo sapiens, AGS, 96 h, read-out: IC50(nM) AGS
Field: value (include unit after the number)

CCc1c(F)ccc2cc(O)cc(-c3ncc4c(N5CCC[C@@](C)(O)C5)nc(OCC5(CN6CCN(C78CC(c9cn([C@H](C(=O)N%10C[C@H](O)C[C@H]%10C(=O)N[C@@H](C)c%10ccc(-c%11scnc%11C)cc%10)C(C)C)nn9)(C7)C8)CC6)CC5)nc4c3F)c12; 15 nM

# return recorded IC50 for input CCc1c(F)ccc2cc(O)cc(-c3ncc4c(N5CCC[C@@](C)(O)C5)nc(OC[C@]56CCCN5[C@@H](COC(=O)N5CCC7(CC5)CC(C(=O)N[C@H](C(=O)N5C[C@H](O)C[C@H]5C(=O)N[C@@H](C)c5ccc(-c8scnc8C)cc5)C(C)(C)C)C7)CC6)nc4c3F)c12 33 nM

These data points were gathered from patent EP4631940A1.
